These entries and their values trace back to paper PMC4714695.

experiment description: Plasma pharmacokinetics
Format: in vivo, human
measurement parameters: human, plasma, intravenous, 450 mg
reported endpoint: AUC(0-t) (ng·h/mL)
Give bare numbers, in ng·h/mL.

Ask | I would be grateful if you could share the reported AUC(0-t) for CC[C@@H]1C(=O)N(C)c2cnc(Nc3ccc(C(=O)N[C@H]4CC[C@H](N5CCN(CC6CC6)CC5)CC4)cc3OC)nc2N1C(C)C .
Reply | 11400

====

experiment description: Plasma pharmacokinetics
Assay type: in vivo, human
measurement parameters: human, plasma, intravenous
reported endpoint: clearance

Ask | Given the compound CC[C@@H]1C(=O)N(C)c2cnc(Nc3ccc(C(=O)N[C@H]4CC[C@H](N5CCN(CC6CC6)CC5)CC4)cc3OC)nc2N1C(C)C , what is its reported clearance?
Reply | 606 to 669 mL/min

====

experiment description: Plasma pharmacokinetics
Assay type: in vivo, human
measurement parameters: human, plasma, intravenous, 400 mg
reported endpoint: Cmax (ng/mL)
Give bare numbers, in ng/mL.

Ask | Recorded Cmax of CC[C@@H]1C(=O)N(C)c2cnc(Nc3ccc(C(=O)N[C@H]4CC[C@H](N5CCN(CC6CC6)CC5)CC4)cc3OC)nc2N1C(C)C , please.
Reply | 762

====

experiment description: Plasma pharmacokinetics
Assay type: in vivo, human
measurement parameters: human, plasma, intravenous, 450 mg
reported endpoint: AUC(0-inf) (ng·h/mL)
Answers are plain numbers, in ng·h/mL.

Ask | Given the entry CC[C@@H]1C(=O)N(C)c2cnc(Nc3ccc(C(=O)N[C@H]4CC[C@H](N5CCN(CC6CC6)CC5)CC4)cc3OC)nc2N1C(C)C [Volasertib] , report its measured AUC(0-inf).
Reply | 12400

====

experiment description: Plasma pharmacokinetics
Type: in vivo, human
measurement parameters: human, plasma, intravenous
reported endpoint: half-life

Ask | # lookup: half-life of CC[C@@H]1C(=O)N(C)c2cnc(Nc3ccc(C(=O)N[C@H]4CC[C@H](N5CCN(CC6CC6)CC5)CC4)cc3OC)nc2N1C(C)C
Reply | 4.5 to 5.42 days

====

experiment description: Plasma pharmacokinetics
Type: in vivo, human
measurement parameters: human, plasma, intravenous, 400 mg
reported endpoint: AUC(0-inf) (ng·h/mL)
Numbers only, in ng·h/mL.

Ask | Which AUC(0-inf) value belongs to CC[C@@H]1C(=O)N(C)c2cnc(Nc3ccc(C(=O)N[C@H]4CC[C@H](N5CCN(CC6CC6)CC5)CC4)cc3OC)nc2N1C(C)C [Volasertib] ?
Reply | 10400

====

experiment description: Plasma pharmacokinetics
Type: in vivo, human
measurement parameters: human, plasma, intravenous, 350 mg
reported endpoint: AUC(0-inf) (ng·h/mL)
Give bare numbers, in ng·h/mL.

Ask | Requested field: AUC(0-inf). Item: CC[C@@H]1C(=O)N(C)c2cnc(Nc3ccc(C(=O)N[C@H]4CC[C@H](N5CCN(CC6CC6)CC5)CC4)cc3OC)nc2N1C(C)C
Reply | 8720

====

experiment description: Plasma pharmacokinetics
Format: in vivo, human
measurement parameters: human, plasma, intravenous, 450 mg
reported endpoint: Cmax
# answer = value followed by unit

Ask | If you can, please state the reported Cmax value of CC[C@@H]1C(=O)N(C)c2cnc(Nc3ccc(C(=O)N[C@H]4CC[C@H](N5CCN(CC6CC6)CC5)CC4)cc3OC)nc2N1C(C)C .
Reply | 1060 ng/mL

====

experiment description: Plasma pharmacokinetics
Format: in vivo, human
measurement parameters: human, plasma, intravenous, 400 mg
reported endpoint: clearance (mL/min)
Answers are plain numbers, in mL/min.

Ask | What value of clearance has been reported for the following compound? CC[C@@H]1C(=O)N(C)c2cnc(Nc3ccc(C(=O)N[C@H]4CC[C@H](N5CCN(CC6CC6)CC5)CC4)cc3OC)nc2N1C(C)C
Reply | 643

====

experiment description: Plasma pharmacokinetics
Format: in vivo, human
measurement parameters: human, plasma, intravenous, 350 mg
reported endpoint: Cmax (ng/mL)
One number for each entry, in ng/mL.

Ask | I would be grateful if you could share the reported Cmax for CC[C@@H]1C(=O)N(C)c2cnc(Nc3ccc(C(=O)N[C@H]4CC[C@H](N5CCN(CC6CC6)CC5)CC4)cc3OC)nc2N1C(C)C [Volasertib] .
Reply | 756
